Here, each record is paired with measured %Inh data.
# Tested on: ABL2;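 note: KINOMEscan kinase panel screen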
# Settings: concentration: 1 μM, replicates: in singlicate; n = 1
// return the numeric value with its unit appended

Structure	Target Or System	%Inh
COc1cccc(C2=C(Nc3cccc(C(=O)O)c3)C(=O)NC2=O)c1	ABL2	6%
Cc1ccc(-c2ccc3c(ccc4sc5c(c43)NC[C@@H](C)N=C5N(C)C)n2)cn1	ABL2	0%
Nc1nccc2scc(-c3ccc4c(c3)CCN4C(=O)Cc3ccccc3)c12	ABL2	1%

Next compound, %Inh to be filled in.
Field %Inh (entry `C[C@@H]1CC[C@H](C(=O)NC2CCCCC2)CN1c1cc(-c2ccc3c(N)n[nH]c3c2)nc(N)n1` ) reads 20%
